Measured pKd values are reported for all entries that follow.
- Assayed Target: HLA-A*69:01
- Experiment Summary: IEDB peptide-MHC binding, purified MHC/direct/fluorescence; filed as Kd, often an IC50 or EC50 that approximates it; bounds were set here for any values at or beyond the usual limits of such assays
- Test Context: source organism: Bacillus anthracis
pKd: −log10 of the molar value.
Measure Name: pKd

[[record]]
chain_sequence = "FIFGKMGAG"
assayed_target = "HLA-A*69:01"
measure_name = "pKd"
value_modifier = "≤"
observed_measurement = 4.70

[[record]]
chain_sequence = "KVQEWYLSY"
assayed_target = "HLA-A*69:01"
measure_name = "pKd"
value_modifier = "="
observed_measurement = 4.82


###

- Assayed Target: HLA-B*39:01
- Experiment Summary: IEDB peptide-MHC binding, purified MHC/direct/fluorescence; filed as Kd, often an IC50 or EC50 that approximates it; bounds were set here for any values at or beyond the usual limits of such assays
- Test Context: source organism: Toxoplasma gondii RH
pKd: −log10 of the molar value.
Measure Name: pKd

[[record]]
chain_sequence = "LTMNLVSDI"
observed_measurement = "≤ 4.70"


###

- Assayed Target: HLA-B*08:02
- Experiment Summary: IEDB peptide-MHC binding, purified MHC/direct/fluorescence; filed as Kd, often an IC50 or EC50 that approximates it; bounds were set here for any values at or beyond the usual limits of such assays
- Test Context: source organism: Influenza A virus(A/swine/Shandong/fNY/2003(H9N2))
Measure Name: Kd

[[record]]
chain_sequence = "NPALRMKWM"
measure_name = "Kd"
observed_measurement = "≥ 20 µM"


###

- Assayed Target: HLA-B*39:01
- Experiment Summary: IEDB peptide-MHC binding, purified MHC/competitive/fluorescence; filed as Kd, often an IC50 or EC50 that approximates it; bounds were set here for any values at or beyond the usual limits of such assays
- Test Context: source organism: Salmonella enterica subsp. enterica serovar Typhi
Measure Name: Kd

[[record]]
chain_sequence = "SVIDHIHYM"
measure_name = "Kd"
observed_measurement = "2.8 µM"


###

- Assayed Target: HLA-A*02:01
- Experiment Summary: IEDB peptide-MHC binding, purified MHC/competitive/radioactivity; filed as Kd, often an IC50 or EC50 that approximates it; bounds were set here for any values at or beyond the usual limits of such assays
- Test Context: source organism: Vaccinia virus WR
pKd: −log10 of the molar value.
Measure Name: pKd

[[record]]
chain_sequence = "YVNAILYQI"
observed_measurement = 5.84

[[record]]
chain_sequence = "ALCKVTVPT"
observed_measurement = 7.51


###

- Assayed Target: HLA-B*15:09
- Experiment Summary: IEDB peptide-MHC binding, purified MHC/direct/fluorescence; filed as Kd, often an IC50 or EC50 that approximates it; bounds were set here for any values at or beyond the usual limits of such assays
- Test Context: source organism: Brucella suis ATCC 23445
Measure Name: Kd

[[record]]
chain_sequence = "FSDVSHWWQ"
observed_measurement = "≥ 20 µM"


###

- Assayed Target: HLA-B*58:01
- Experiment Summary: IEDB peptide-MHC binding, purified MHC/direct/fluorescence; filed as Kd, often an IC50 or EC50 that approximates it; bounds were set here for any values at or beyond the usual limits of such assays
- Test Context: source organism: Cryptosporidium parvum
pKd: −log10 of the molar value.
Measure Name: pKd

[[record]]
chain_sequence = "WLPWIPQLI"
assayed_target = "HLA-B*58:01"
measure_name = "pKd"
observed_measurement = "≤ 4.70"


###

- Assayed Target: HLA-A*69:01
- Experiment Summary: IEDB peptide-MHC binding, purified MHC/competitive/fluorescence; filed as Kd, often an IC50 or EC50 that approximates it; bounds were set here for any values at or beyond the usual limits of such assays
- Test Context: source organism: Giardia lamblia ATCC 50803
pKd: −log10 of the molar value.
Measure Name: pKd

[[record]]
chain_sequence = "RIYDPLWFQ"
measure_name = "pKd"
observed_measurement = "≤ 4.70"


###

- Assayed Target: HLA-A*02:02
- Experiment Summary: IEDB peptide-MHC binding, purified MHC/competitive/radioactivity; filed as Kd, often an IC50 or EC50 that approximates it; bounds were set here for any values at or beyond the usual limits of such assays
- Test Context: source organism: Vaccinia virus WR
Measure Name: Kd (nM)

[[record]]
chain_sequence = "YTVEFDRDKV"
unit_annotation = "nM"
value_modifier = "="
observed_measurement = 82.6

[[record]]
chain_sequence = "LIYYQNEVT"
unit_annotation = "nM"
value_modifier = "="
observed_measurement = 14000

[[record]]
chain_sequence = "DVNEEYTEAA"
unit_annotation = "nM"
value_modifier = "≥"
observed_measurement = 46300

[[record]]
chain_sequence = "QIYLSDSDNI"
unit_annotation = "nM"
value_modifier = "="
observed_measurement = 1240

[[record]]
chain_sequence = "HINDQKFDDV"
unit_annotation = "nM"
value_modifier = "="
observed_measurement = 5860

[[record]]
chain_sequence = "KVEKYLPEVI"
unit_annotation = "nM"
value_modifier = "="
observed_measurement = 12100

[[record]]
chain_sequence = "ITGNKVKTEL"
unit_annotation = "nM"
value_modifier = "≥"
observed_measurement = 70000

[[record]]
chain_sequence = "DVLPFDIKYI"
unit_annotation = "nM"
value_modifier = "="
observed_measurement = 1200

[[record]]
chain_sequence = "MAEFEDQLV"
unit_annotation = "nM"
value_modifier = "="
observed_measurement = 165

[[record]]
chain_sequence = "QMAGVEVRYI"
unit_annotation = "nM"
value_modifier = "="
observed_measurement = 0.208

[[record]]
chain_sequence = "RAGYSIVEL"
unit_annotation = "nM"
value_modifier = "="
observed_measurement = 4940

[[record]]
chain_sequence = "ETNIGCAVNT"
unit_annotation = "nM"
value_modifier = "≥"
observed_measurement = 70000

[[record]]
chain_sequence = "VIRNEVNDT"
unit_annotation = "nM"
value_modifier = "="
observed_measurement = 19900

[[record]]
chain_sequence = "AAVTLNRIKI"
unit_annotation = "nM"
value_modifier = "="
observed_measurement = 830

[[record]]
chain_sequence = "VIPDELIDVL"
unit_annotation = "nM"
value_modifier = "="
observed_measurement = 2490

[[record]]
chain_sequence = "MLHNPTSET"
unit_annotation = "nM"
value_modifier = "="
observed_measurement = 4210

[[record]]
chain_sequence = "CTINVNSLA"
unit_annotation = "nM"
value_modifier = "="
observed_measurement = 1040

[[record]]
chain_sequence = "HILHAYCGI"
unit_annotation = "nM"
value_modifier = "="
observed_measurement = 123

[[record]]
chain_sequence = "YTISSESLV"
unit_annotation = "nM"
value_modifier = "="
observed_measurement = 522

[[record]]
chain_sequence = "RLRQDTEDI"
unit_annotation = "nM"
value_modifier = "="
observed_measurement = 230

[[record]]
chain_sequence = "VLTILYYGA"
unit_annotation = "nM"
value_modifier = "="
observed_measurement = 1.32


###

- Assayed Target: HLA-B*18:01
- Experiment Summary: IEDB peptide-MHC binding, purified MHC/direct/fluorescence; filed as Kd, often an IC50 or EC50 that approximates it; bounds were set here for any values at or beyond the usual limits of such assays
- Test Context: source organism: Brucella abortus
Measure Name: Kd

[[record]]
chain_sequence = "FSDVSHWWQ"
observed_measurement = "≥ 20 µM"


###

- Assayed Target: HLA-B*39:01
- Experiment Summary: IEDB peptide-MHC binding, purified MHC/competitive/fluorescence; filed as Kd, often an IC50 or EC50 that approximates it; bounds were set here for any values at or beyond the usual limits of such assays
- Test Context: source organism: Escherichia coli 536
pKd: −log10 of the molar value.
Measure Name: pKd

[[record]]
chain_sequence = "RAMDVYCHR"
observed_measurement = "≤ 4.70"


###

- Assayed Target: HLA-B*15:01
- Experiment Summary: IEDB peptide-MHC binding, purified MHC/direct/fluorescence; filed as Kd, often an IC50 or EC50 that approximates it; bounds were set here for any values at or beyond the usual limits of such assays
- Test Context: source organism: Yersinia pestis Nepal516
Measure Name: Kd

[[record]]
chain_sequence = "LSEEIGLDL"
measure_name = "Kd"
observed_measurement = "≥ 20 µM"


###

Examples of sequences with documented pKd follow.
- Assayed Target: HLA-A*26:01
- Experiment Summary: IEDB peptide-MHC binding, purified MHC/competitive/radioactivity; filed as Kd, often an IC50 or EC50 that approximates it; bounds were set here for any values at or beyond the usual limits of such assays
- Test Context: source organism: Dengue virus 2 Jamaica/1409/1983
pKd: −log10 of the molar value.
Measure Name: pKd

[[record]]
chain_sequence = "EVEDYGFGVF"
value_modifier = "="
observed_measurement = 6.88

[[record]]
chain_sequence = "LTILIRTGLL"
value_modifier = "="
observed_measurement = 5.07

[[record]]
chain_sequence = "ATVTGGIFLF"
value_modifier = "="
observed_measurement = 5.60

[[record]]
chain_sequence = "LTKRFSLGM"
value_modifier = "≤"
observed_measurement = 4.50

